test system: Mus musculus; test: Antiosteoporosis activity against ovariectomized ICR mouse assessed as serum calcium level at 110.3 nmol/kg, po after 30 mins; format: functional
Peptide text beside a SMILES is read from it. * marks the point of attachment. Succinyl(O17-estradiol) = C[C@]12CC[C@@H]3c4ccc(O)cc4CC[C@H]3[C@@H]1CC[C@@H]2OC(=O)CCC(=O)*; X1 = C[C@]12CC[C@@H]3c4ccc(OCC(=O)*)cc4CC[C@H]3[C@@H]1CCC2=O
Each item that follows carries a reported Activity.
Form field: result (number plus unit)

Worked cases, Activity given:
C[C@]12CC[C@@H]3c4ccc(O)cc4CC[C@H]3[C@@H]1CC[C@@H]2OC(=O)CCC(=O)N[C@@H](CCCNC(=N)N)C(=O)NCC(=O)N[C@@H](CC(=O)O)C(=O)N[C@@H](CO)C(=O)O ({Succinyl(O17-estradiol)}-RGDS-OH): 3.35 mM
C[C@]12CC[C@@H]3c4ccc(O)cc4CC[C@H]3[C@@H]1CC[C@@H]2O [ESTRADIOL]: 3.34 mM

Consider the compound shown here: C[C@]12CC[C@@H]3c4ccc(OCC(=O)N[C@@H](CCCNC(=N)N)C(=O)NCC(=O)N[C@@H](CC(=O)O)C(=O)N[C@@H](Cc5ccccc5)C(=O)O)cc4CC[C@H]3[C@@H]1CCC2=O (X1-RGDF-OH) What is its recorded Activity?
3.44 mM
